src = patent US20220017636A1

- assay_system: T1, ADF peptide complexed with HLA-A*02:01 on T2 cells (human)
- T1 construct: whole, on cells
- test_details: flow cytometry, peptide-loaded T2 cells;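 note: binding of single-chain Fv antibody constructs, raised in XenoMouse, to peptide-pulsed T2 cells measured by flow cytometry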
readout_label: Signal/background
Format: numeric value only, no unit, no commentary.

Some binders with known Signal/background results, for comparison:
binder="18089-D12 (scFv, scFv in bacterial lysate, detected with anti-Flag M2) scFv: EVQLLESGGGVVQPGRSLRLSCAASGFTFSTYGMHWVRQAPGKGLEWVAVISYDGSNKYYADSVKGRFTISRDDSKNTLYLQMNSLRAEDTAVYYCARGQLLTGYWGQGTLVTVSSGGGGSGGGGSGGGGSELVMTQSPSSLSASVGDRVTITCRASQGISNYLAWYQQKPGKVPKLLIYAASTLQSGVPSRFSGSGSGTDFTLTISSLQPEDVATYYCQKYNSAPFTFGPGTKVEIK" readout_label=Signal/background data_value=1.1
binder="18179-B12 (scFv, scFv in bacterial lysate, detected with anti-Flag M2) scFv: EVQLLESGGGLVQPGGSLRLSCAASGFTFSNAWMSWVRQAPGKGLEWVGRIKGNTYGGTTDYAAPVKGRFTISRDDSKNTLFLQMNSLKTEDTAVYYCTTPSNSGSYYNYFSVMDVWGQGTTVTVSSGGGGSGGGGSGGGGSELVMTQSPSSLSASVGDRVTITCRTSQSISSYLNWFQQKPGKAPKLLIFAASSLQSGVPSRFSGSGSGTDFTLTISSLQPEDFATYYCQQTYSMPFTFGPGTKVEIK" readout_label=Signal/background data_value=1

Query 18089-C9 (scFv, scFv in bacterial lysate, detected with anti-Flag M2) scFv: EVQLLESGPTLVKPTQTLTLTCTFSGFSFTTHKMGVDWIRQPPGKALEWLALIYWNDDKRYSPSLQSRLTITKDTSKNQVVLTMTNMDPVDTATYYCAYRRYNWNYENWFDPWGQGTLVTVSSGGGGSGGGGSGGGGSELQMTQSPSSLSASVGDRVTITCRASQFISSYLNWYQQKPGKAPKLLIYAASSLQSGVPSRFSGRGSGTDFTLTISSLQPEDFATYYCQQSYSTPFTFGPGTKVEIK yields Signal/background of 1

Query 18182-B12 (scFv, scFv in bacterial lysate, detected with anti-Flag M2) scFv: EVQLLESGGGLVQPGGSLRLSCAASGFTFSSYAMSWVRQAPGKGLEWVSAISGSGGGTYYADSVKGRFTISRDNSKNTLYLQMSSLRAEDTAVYYCATGKGVHLGFDYWGQGTLVTVSSGGGGSGGGGSGGGGSELVLTQPPSVSVAPGQTARITCGGNNIGSKSVHWHQQKPGQAPVLVVYDDNDRPSGIPERFSGSNSGNTATLTISRVEAGDEADYYCQVWDYSSDHVVFGGGTKLTVL yields Signal/background of 1

Query 18182-E5 (scFv, scFv in bacterial lysate, detected with anti-Flag M2) scFv: EVQLLESGGGLVQPGGSLRLSCAASGFTFSSYAMSWVRQAPGKGLEWVSTISGSGGGTYYADSVKGRFTISRDNSKNTLYLQMNSLRAEDTAVYYCATGKGVHLGFDYWGQGTLVTVSSGGGGSGGGGSGGGGSELVLTQPPSVSVAPGQTARITCGGNNIGSKSVHWHQQKPGQAPVLVVYDDNDRPSGIPERFSGSNSGNTATLTISRVEAGDEADYYCQVWDYSSDHVVFGGGTKLTVL yields Signal/background of 1
